Measured values drawn from the Human Domainome abundance scans (Beltran et al. 2025) for this set.

B1: POU domain, class 2, transcription factor 2, residues 200 to 269; numbered along this chain, P09086 (parent)
chain: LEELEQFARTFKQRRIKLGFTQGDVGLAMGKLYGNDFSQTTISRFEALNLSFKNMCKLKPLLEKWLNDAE

Variants of: B1
Test: abundance fitness (aPCA) (normalised: wild type 0, dead -1); higher = more abundant; growth selection in yeast, the domain comes from the species named
Conditions: Homo sapiens
endpoint: abundance fitness
Answers are plain numbers.

# monomer-sequence, endpoint, value-reported
records = [
    ("LEELEQFARTFKQRRIKLGFTQGDVGLAMGKLYGNDFSQTTISRFEALNLSFKNMCKLKPTLEKWLNDAE", "abundance fitness", 0.008),
    ("LEELEQFARTFKQRRIKLGFTQGDVGLANGKLYGNDFSQTTISRFEALNLSFKNMCKLKPLLEKWLNDAE", "abundance fitness", -0.616),
]

Hi, could you look up abundance fitness for each item in my list?
1. LEELEQFARTFKQRRIKLGFTQGDVGLAMGKDYGNDFSQTTISRFEALNLSFKNMCKLKPLLEKWLNDAE
2. LEELEQFARTFKQRRIKLGFTQGDVGLAMGKLYGNDFSQTTISRFEALNLSFKNDCKLKPLLEKWLNDAE
3. LEELEQFARTFKQRRIKLGFTQGDVGLAMGKLYGNDFSQTTISRFEALNLSFKNMCKLKPLIEKWLNDAE

1: 0.037; 2: -0.435; 3: 0.014

Field: abundance fitness. Fill in for each record below.
1. LEELEQFARTFKQRRIKLGQTQGDVGLAMGKLYGNDFSQTTISRFEALNLSFKNMCKLKPLLEKWLNDAE
2. LEELEQFARTFKQRRIKLGFTQGDVQLAMGKLYGNDFSQTTISRFEALNLSFKNMCKLKPLLEKWLNDAE
3. LEELEQFARTFKQRRIKLGFTQGDVGLAMGKLYGNDASQTTISRFEALNLSFKNMCKLKPLLEKWLNDAE

-0.081
0.042
-0.152
